The reported measurements were obtained from ChEMBL document CHEMBL1143144.

Test system: KB
Assay: Antitumor activity against human KB cells by MTT assay
Type: functional, cell-based
READOUT KIND: IC50 (µg/mL)

>>> data_value("CSc1nc2nc3ccc(C)cc3[n+]([O-])c2c(=O)[nH]1")
5.8

[a] CSc1nc2n(C)c3ccccc3[n+]([O-])c-2c(=O)n1
[b] CSc1nc2nc3ccccc3cc2c(=O)[nH]1
Exercise: Which of the two gives a bigger number for IC50: a or b ? Answer by quoting the chosen item's label.
Key: b

* * *

Tested on: KB
Assay: Antitumor activity against human KB cells by MTT assay
Type: functional, cell-based
READOUT KIND: IC50 (µg/mL)

These solved cases illustrate the format of a correct answer.
>>> data_value("CSc1nc2nc3ccc(C)cc3[n+]([O-])c2c(=O)n1C")
13.4
>>> data_value("CCn1c2nc(SC)nc(=O)c-2[n+]([O-])c2cc(C)ccc21")
46.3

[P] COc1ccc2nc3nc(N4CCOCC4)[nH]c(=O)c3nc2c1
[Q] CNc1nc2n(C)c3ccccc3[n+]([O-])c-2c(=O)n1
Exercise: Lower value of IC50 belongs to which: P or Q ? Respond with the label that goes with your answer.
Key: Q
(Q: 6.93 µg/mL, P: 71.7 µg/mL)
